Source of measurements: the supplement of paper PMC6757056

B1: library; a variant is named by its letters at N, in order (parent)
chain: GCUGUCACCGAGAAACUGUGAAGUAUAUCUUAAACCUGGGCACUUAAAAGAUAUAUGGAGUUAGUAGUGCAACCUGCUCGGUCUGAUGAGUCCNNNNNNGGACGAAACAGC

Variants of: B1
assay protocol: normalized RNA/DNA level without ligand (relative to sTRSVctl = 100) (log10 (% of sTRSVctl)); HEK293T; ligand: cyclic di-GMP (c-di-GMP-II aptamer); higher = less ribozyme self-cleavage, higher mRNA level
condition label: reporter: mCherry (pCS4076), ligand present: no
property measured: normalized RNA/DNA level without ligand (log10)
Write the number on its own, no unit after it.

Return normalized RNA/DNA level without ligand (log10) (reported value) for this variant: GCUGUCACCGAGAAACUGUGAAGUAUAUCUUAAACCUGGGCACUUAAAAGAUAUAUGGAGUUAGUAGUGCAACCUGCUCGGUCUGAUGAGUCCUAAUGCGGACGAAACAGC
1.69

Return normalized RNA/DNA level without ligand (log10) (reported value) for this variant: GCUGUCACCGAGAAACUGUGAAGUAUAUCUUAAACCUGGGCACUUAAAAGAUAUAUGGAGUUAGUAGUGCAACCUGCUCGGUCUGAUGAGUCCAUGUUUGGACGAAACAGC
1.56

Return normalized RNA/DNA level without ligand (log10) (reported value) for this variant: GCUGUCACCGAGAAACUGUGAAGUAUAUCUUAAACCUGGGCACUUAAAAGAUAUAUGGAGUUAGUAGUGCAACCUGCUCGGUCUGAUGAGUCCUAUGCAGGACGAAACAGC
1.77

Return normalized RNA/DNA level without ligand (log10) (reported value) for this variant: GCUGUCACCGAGAAACUGUGAAGUAUAUCUUAAACCUGGGCACUUAAAAGAUAUAUGGAGUUAGUAGUGCAACCUGCUCGGUCUGAUGAGUCCGACAGAGGACGAAACAGC
1.52

Return normalized RNA/DNA level without ligand (log10) (reported value) for this variant: GCUGUCACCGAGAAACUGUGAAGUAUAUCUUAAACCUGGGCACUUAAAAGAUAUAUGGAGUUAGUAGUGCAACCUGCUCGGUCUGAUGAGUCCCAGUGUGGACGAAACAGC
1.72

Return normalized RNA/DNA level without ligand (log10) (reported value) for this variant: GCUGUCACCGAGAAACUGUGAAGUAUAUCUUAAACCUGGGCACUUAAAAGAUAUAUGGAGUUAGUAGUGCAACCUGCUCGGUCUGAUGAGUCCAAUUCUGGACGAAACAGC
1.77

Return normalized RNA/DNA level without ligand (log10) (reported value) for this variant: GCUGUCACCGAGAAACUGUGAAGUAUAUCUUAAACCUGGGCACUUAAAAGAUAUAUGGAGUUAGUAGUGCAACCUGCUCGGUCUGAUGAGUCCACUAACGGACGAAACAGC
1.61

Return normalized RNA/DNA level without ligand (log10) (reported value) for this variant: GCUGUCACCGAGAAACUGUGAAGUAUAUCUUAAACCUGGGCACUUAAAAGAUAUAUGGAGUUAGUAGUGCAACCUGCUCGGUCUGAUGAGUCCCGUCCAGGACGAAACAGC
1.53

Return normalized RNA/DNA level without ligand (log10) (reported value) for this variant: GCUGUCACCGAGAAACUGUGAAGUAUAUCUUAAACCUGGGCACUUAAAAGAUAUAUGGAGUUAGUAGUGCAACCUGCUCGGUCUGAUGAGUCCUCAUGUGGACGAAACAGC
1.63

Return normalized RNA/DNA level without ligand (log10) (reported value) for this variant: GCUGUCACCGAGAAACUGUGAAGUAUAUCUUAAACCUGGGCACUUAAAAGAUAUAUGGAGUUAGUAGUGCAACCUGCUCGGUCUGAUGAGUCCGAGCGCGGACGAAACAGC
1.79

Return normalized RNA/DNA level without ligand (log10) (reported value) for this variant: GCUGUCACCGAGAAACUGUGAAGUAUAUCUUAAACCUGGGCACUUAAAAGAUAUAUGGAGUUAGUAGUGCAACCUGCUCGGUCUGAUGAGUCCCGAUAUGGACGAAACAGC
1.43

Return normalized RNA/DNA level without ligand (log10) (reported value) for this variant: GCUGUCACCGAGAAACUGUGAAGUAUAUCUUAAACCUGGGCACUUAAAAGAUAUAUGGAGUUAGUAGUGCAACCUGCUCGGUCUGAUGAGUCCUGCAAUGGACGAAACAGC
1.66

Return normalized RNA/DNA level without ligand (log10) (reported value) for this variant: GCUGUCACCGAGAAACUGUGAAGUAUAUCUUAAACCUGGGCACUUAAAAGAUAUAUGGAGUUAGUAGUGCAACCUGCUCGGUCUGAUGAGUCCGUCCUAGGACGAAACAGC
1.71

Return normalized RNA/DNA level without ligand (log10) (reported value) for this variant: GCUGUCACCGAGAAACUGUGAAGUAUAUCUUAAACCUGGGCACUUAAAAGAUAUAUGGAGUUAGUAGUGCAACCUGCUCGGUCUGAUGAGUCCGAAAGGGGACGAAACAGC
1.56

Return normalized RNA/DNA level without ligand (log10) (reported value) for this variant: GCUGUCACCGAGAAACUGUGAAGUAUAUCUUAAACCUGGGCACUUAAAAGAUAUAUGGAGUUAGUAGUGCAACCUGCUCGGUCUGAUGAGUCCGACGGGGGACGAAACAGC
1.76

Return normalized RNA/DNA level without ligand (log10) (reported value) for this variant: GCUGUCACCGAGAAACUGUGAAGUAUAUCUUAAACCUGGGCACUUAAAAGAUAUAUGGAGUUAGUAGUGCAACCUGCUCGGUCUGAUGAGUCCCUAUACGGACGAAACAGC
1.7

Return normalized RNA/DNA level without ligand (log10) (reported value) for this variant: GCUGUCACCGAGAAACUGUGAAGUAUAUCUUAAACCUGGGCACUUAAAAGAUAUAUGGAGUUAGUAGUGCAACCUGCUCGGUCUGAUGAGUCCGCCAGCGGACGAAACAGC
1.67

Return normalized RNA/DNA level without ligand (log10) (reported value) for this variant: GCUGUCACCGAGAAACUGUGAAGUAUAUCUUAAACCUGGGCACUUAAAAGAUAUAUGGAGUUAGUAGUGCAACCUGCUCGGUCUGAUGAGUCCAAUGAUGGACGAAACAGC
1.58

Return normalized RNA/DNA level without ligand (log10) (reported value) for this variant: GCUGUCACCGAGAAACUGUGAAGUAUAUCUUAAACCUGGGCACUUAAAAGAUAUAUGGAGUUAGUAGUGCAACCUGCUCGGUCUGAUGAGUCCGCCGGCGGACGAAACAGC
1.56

Return normalized RNA/DNA level without ligand (log10) (reported value) for this variant: GCUGUCACCGAGAAACUGUGAAGUAUAUCUUAAACCUGGGCACUUAAAAGAUAUAUGGAGUUAGUAGUGCAACCUGCUCGGUCUGAUGAGUCCUCCACUGGACGAAACAGC
1.69

Return normalized RNA/DNA level without ligand (log10) (reported value) for this variant: GCUGUCACCGAGAAACUGUGAAGUAUAUCUUAAACCUGGGCACUUAAAAGAUAUAUGGAGUUAGUAGUGCAACCUGCUCGGUCUGAUGAGUCCAACACUGGACGAAACAGC
1.68

Return normalized RNA/DNA level without ligand (log10) (reported value) for this variant: GCUGUCACCGAGAAACUGUGAAGUAUAUCUUAAACCUGGGCACUUAAAAGAUAUAUGGAGUUAGUAGUGCAACCUGCUCGGUCUGAUGAGUCCGCUUACGGACGAAACAGC
1.53
